- assay.name: amyloid nucleation score (Sup35N fusion, yeast selection) (log enrichment); library NNK3; higher = more nucleation; inactive = no reads after selection;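 also: zero at mode of non-aggregating sequences after 7 days selection at 30°C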
assay.endpoint: amyloid nucleation score

Worked examples follow.
substance	amyloid nucleation score
LCDSGWELMYKLCTDKDMIL	inactive
MNFGFWGTVHWSHASNHVGS	inactive
GTRIFSRDVISSGFQGSICL	inactive
QSVSVGLCCWAMPVK	inactive
VSMSLDCM	inactive

// amyloid nucleation score value for RFMWSLGSTLRWKAWADVTG : inactive

// amyloid nucleation score value for VYSEFWVHMLLLSFRVIYIL : inactive

// amyloid nucleation score value for YSSARTFSLHCIERLYSGYV : inactive

// amyloid nucleation score value for FWTKFC : inactive

// amyloid nucleation score value for NLNYRLADSCLNSVLDRLGQ : inactive

// amyloid nucleation score value for FWSSLAVQRACKCMGGFCDL : inactive

// amyloid nucleation score value for NTIDYHYKVSCSHGYSLQSY : inactive

// amyloid nucleation score value for QEGWCWSYLVAGGWV : inactive

// amyloid nucleation score value for ISGLSNMAYFLVNAWKLM : inactive

// amyloid nucleation score value for RFRNYGLSGR : -0.38

// amyloid nucleation score value for VFISLVLSDLRSFARVVLGG : inactive

// amyloid nucleation score value for KRVDYCFMIGVMTCVNHPTE : inactive

The reported measurements were obtained from the supplement of paper PMC12042874.
